Assay: qHTS of TDP-43 Inhibitors; note: nearly all actives have a fitted effect of over 50% in size
Conditions: TDP-43 expressing yeast growth rescue, BacTiter-Glo, 24 h; series mostly up to 46.1 µM
The campaign covered roughly 410,000 compounds. About 7,200 (1.8%) were called active. Roughly 7% stayed inconclusive and do not appear here. Calls come from the whole dose curve; as a rule, active = well fitted activation curve with a large enough effect; inconclusive = small, poorly fitted or top-dose-only effect, or another doubt; inactive = no such curve, though single readings can be large or run the other way. For the sample, actives were picked, then their nearest neighbours and some compounds at random.
Choose the fitting class; nothing outside active, inactive is accepted.

Consider the following illustrative entries.
- COMPOUND: "Cc1ccc2c(N)c(C(=O)c3ccccc3)sc2n1"
  DISCRETE LABEL: "active"
- COMPOUND: "CCN(CCCNC(=O)c1c(C)oc2ncn(CC(C)C)c(=O)c12)Cc1ccccc1"
  DISCRETE LABEL: "inactive"
- COMPOUND: "CCOc1ccc(OCC)c(NC(=O)c2c(C)nn(-c3ccccc3)c2-n2cccc2)c1"
  DISCRETE LABEL: "inactive"
- COMPOUND: "Cc1ccc(NC(=O)c2sc3nc(N)c(C#N)cc3c2N)cc1"
  DISCRETE LABEL: "inactive"
- COMPOUND: "COc1cccc(C(=O)c2sc3nc(-c4ccccc4)cc(C(F)(F)F)c3c2N)c1"
  DISCRETE LABEL: "inactive"
- COMPOUND: "Cc1ccc(-c2nc(CS(=O)(=O)CC(=O)NCc3ccccc3Cl)c(C)o2)cc1"
  DISCRETE LABEL: "inactive"
- COMPOUND: "COc1ccccc1NC(=O)c1sc2nc(C)c(C(=O)Nc3ccc(Cl)cc3)c(-c3ccc(Br)cc3)c2c1N"
  DISCRETE LABEL: "inactive"
- COMPOUND: "Cc1ccc(CCNC(=O)c2ccc(CS(=O)(=O)Cc3cccc(C)c3)o2)cc1"
  DISCRETE LABEL: "inactive"

I'd appreciate the recorded outcome for `Nc1c(C(=O)c2cccs2)sc2nsc(SCCN3CCCCC3)c12` from this test.
inactive

I'd appreciate the recorded outcome for `Cc1nc2sc(C(=O)c3ccccc3)c(N)c2c2c1CCCC2` from this test.
active
